# System: biotinyl-Ile-oxazolone
# METHOD NOTES: self-aminoacylation, catalytic enhancement (BIO) (fold over background); higher = more active; k-Seq, kA / k0A0; sequences stand for … in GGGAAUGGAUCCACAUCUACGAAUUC…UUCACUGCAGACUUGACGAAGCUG
Fewer inactive variants are shown than the library holds.
Give measured self-aminoacylation for each item. Keep answers brief.
Please reply with the number alone, leaving off any unit.

For biotinyl-Ile-oxazolone, provide self-aminoacylation of CUACGUCAUACAAUCGGUCUG [Fam1A.1 aminoacylation ribozyme variant] please. 1.1

Same read-out for CCACGCUUCAAGAAAUCGGUC [Fam1B.1 aminoacylation ribozyme variant] ? 0.895

Try CCUCACUUCAAGCAAUCGGUG [Fam1B.1 aminoacylation ribozyme variant] next. 4.12

// next record AUUCACCUAGGUCAUCCGGUA [Fam2.2 aminoacylation ribozyme variant] 2.36

Next record, please: CUACUUCAAACAUUCAGUCUG [Fam1A.1 aminoacylation ribozyme variant] 1.04

Could you do the same for AUUAUCCUGGUCAUCUAGUGA [Fam2.1 aminoacylation ribozyme variant] , please? 4.87

Cool, now CCACACUUAAAGAAAUCGGUC [Fam1B.1 aminoacylation ribozyme variant] 0.754

Another sequence: CUACUUGAAACAAACGGUCUG [Fam1A.1 aminoacylation ribozyme variant] 1.02

How about this sequence: AAGUUUGCUAGUAGUAGCAAG [Fam3.1 aminoacylation ribozyme variant] 1.24

// query: AAGUUUGCUAAGAGUCGCAUG [Fam3.1 aminoacylation ribozyme variant] 0.902

Follow-up entry: AAGUUUGUUGAUAGUCGCAAG [Fam3.1 aminoacylation ribozyme variant] 1.14

Same lookup for AUUCACCUAGGACAUCGAGUG [Fam2.2 aminoacylation ribozyme variant] , please. 1.02

Moving on to AUUUUCCUGGUCAUCGAGUGA [Fam2.1 aminoacylation ribozyme variant] 4.2

Record: AUGCACCUAGGUCUUCGGGUG [Fam2.2 aminoacylation ribozyme variant] 3.64

And what about the sequence AUCCACCUAGCUCAUCGGGUG [Fam2.2 aminoacylation ribozyme variant] ? 2.2

Further, for CCACACUUCAAGCAAUCGGUG [Fam1B.1 aminoacylation ribozyme variant] ? 3.68

What do you get for AUUAGCCUGGGCAUCGAGUGA [Fam2.1 aminoacylation ribozyme variant] ? 3.66

Try AAGCUUGCUAAUAGUCGCAAC [Fam3.1 aminoacylation ribozyme variant] next. 1.86

----------
Could you please report measured self-aminoacylation for the items listed next?
# System: biotinyl-Phe-oxazolone
# METHOD NOTES: self-aminoacylation, catalytic enhancement (BFO) (fold over background); higher = more active; k-Seq, kA / k0A0; sequences stand for … in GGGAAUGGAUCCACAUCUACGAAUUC…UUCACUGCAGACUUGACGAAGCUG
Fewer inactive variants are shown than the library holds.
// return just the number, without any unit appended

Requested field: self-aminoacylation. Item: AUUCACCUACCUCAUCGGGUG [Fam2.2 aminoacylation ribozyme variant] 22.3

Next entry: CCACACUUCAAUCAAUGGGUC [Fam1B.1 aminoacylation ribozyme variant] 0.724

What about AGUACCCUGGUCAUCGAGUGU [Fam2.1 aminoacylation ribozyme variant] ? 29.9

Consider next the sequence CUAAUUGAAACAAUCGGUCUG [Fam1A.1 aminoacylation ribozyme variant] in the same way. 0.706

And CCACAUUUCAAGGAAUCGGUC [Fam1B.1 aminoacylation ribozyme variant] ? 1.67

Next sequence: CCGCACUUCAAUCAAUCGGUC [Fam1B.1 aminoacylation ribozyme variant] 39.7

Now give it for CCACACUUCAAGCCGUCGGUC [Fam1B.1 aminoacylation ribozyme variant] too. 0.678

Moving on to AUGCACCUAGGUCUUCGGGUG [Fam2.2 aminoacylation ribozyme variant] 40
